- System: UACC-62 melanoma
- experiment description: NCI tumour cell line growth inhibition, 48 h
measurement kind: TGI

Use these answered entries as a reference point.
>>> recorded_measurement("O=c1[nH]c(-c2cccc(F)c2)nc2ccccc12")
"> 67.3 µM"
>>> recorded_measurement("O=C1c2ccccc2-c2nc3ccc(O)cc3n21")
"> 100 µM"

Switching to the query record.
// query Could you share which TGI value was measured for `Clc1ccc(Nc2nc(Cl)c3[nH]cnc3n2)cc1Cl` ?
// result > 100 µM

* * *

Please provide measured TGI for the entries that follow.
- System: MOLT-4 leukemia
- experiment description: NCI tumour cell line growth inhibition, 48 h

Your task in this section: give TGI for each listed record.
1. O=S(=O)(/N=C(\NO)Nc1ccc(Cl)cc1)c1ccc(S(=O)(=O)c2ccccc2)s1
2. O=C(c1cccc(OCc2ccccc2)c1OCc1ccccc1)N1CCSC1=S

// result
["35.9 µM", "38.7 µM"]

Please give TGI, item by item, for the list that follows.
1. O=C1CC(CC(O)C(O)C(O)CO)CC(=O)N1 (stereo not given)
2. ClC1CCC2OOC1O2 (stereo not given)
3. Cn1ncc2c(/N=C/c3cccs3)[nH]c(=S)nc21

// result
["> 100 µM", "> 100 µM", "> 100 µM"]

* * *

Would you kindly list TGI for each of these molecules?
- Tested on: IGROV1 ovarian
- experiment description: NCI tumour cell line growth inhibition, 48 h

Would you please look over these solved cases?
>>> recorded_measurement("Nc1ncnc2c1ncn2C1C=CC(CP(=O)(O)O)C1 (stereo unspecified)")
"> 100 µM"
>>> recorded_measurement("CC(=O)N(C)c1ccc2c(ccc[n+]2[O-])c1[N+](=O)[O-]")
"> 100 µM"

Hi! Can you tell me TGI for each of these molecules?
1. CCOC(=O)C1CCn2c(nc3c2c(=O)n(C)c(=O)n3C)S1 (stereo unspecified)
2. Nc1ccc2c(c1)C(=O)N(O)C2=O
3. Cc1cc2c(c(C=Nc3ccc([N+](=O)[O-])cc3)c1)OC1(C=C2)Oc2ccccc2C(=O)N1C (stereo unspecified)
4. Oc1ccc(CNCc2ccccc2)c2cccnc12
5. CNNCc1ccc(C(=O)NC(C)C)cc1
6. CCOC(=O)/C(=C/c1ccc([N+](=O)[O-])cc1)C(=O)c1ccccc1
7. COc1ccc(C(c2ccc(C(C)C)cc(=O)c2O)c2ccc3cccnc3c2O)cc1 (stereo unspecified)

// result
["> 100 µM", "> 100 µM", "56.6 µM", "> 100 µM", "> 500 µM", "7.4 µM", "15.3 µM"]

State recorded TGI for all listed molecules.
1. O=S(=O)(O)c1cccc2c(N=Nc3c(O)ccc4ccccc34)cccc12
2. Nc1nc(Nc2ccccc2)sc1C(=O)c1ccc(Cl)cc1

// result
> 100 µM
> 100 µM
